For each of the compounds below, state its pIC50.
Molecular target: proton, potassium-adenosine triphosphatase (H+,K+-ATPase) (Sus scrofa, UniProt P19156)
Construct: a gastric mucous membrane microsomal fraction was prepared from the stomach of swine
Sequence (P19156 2-1034 limits assumed): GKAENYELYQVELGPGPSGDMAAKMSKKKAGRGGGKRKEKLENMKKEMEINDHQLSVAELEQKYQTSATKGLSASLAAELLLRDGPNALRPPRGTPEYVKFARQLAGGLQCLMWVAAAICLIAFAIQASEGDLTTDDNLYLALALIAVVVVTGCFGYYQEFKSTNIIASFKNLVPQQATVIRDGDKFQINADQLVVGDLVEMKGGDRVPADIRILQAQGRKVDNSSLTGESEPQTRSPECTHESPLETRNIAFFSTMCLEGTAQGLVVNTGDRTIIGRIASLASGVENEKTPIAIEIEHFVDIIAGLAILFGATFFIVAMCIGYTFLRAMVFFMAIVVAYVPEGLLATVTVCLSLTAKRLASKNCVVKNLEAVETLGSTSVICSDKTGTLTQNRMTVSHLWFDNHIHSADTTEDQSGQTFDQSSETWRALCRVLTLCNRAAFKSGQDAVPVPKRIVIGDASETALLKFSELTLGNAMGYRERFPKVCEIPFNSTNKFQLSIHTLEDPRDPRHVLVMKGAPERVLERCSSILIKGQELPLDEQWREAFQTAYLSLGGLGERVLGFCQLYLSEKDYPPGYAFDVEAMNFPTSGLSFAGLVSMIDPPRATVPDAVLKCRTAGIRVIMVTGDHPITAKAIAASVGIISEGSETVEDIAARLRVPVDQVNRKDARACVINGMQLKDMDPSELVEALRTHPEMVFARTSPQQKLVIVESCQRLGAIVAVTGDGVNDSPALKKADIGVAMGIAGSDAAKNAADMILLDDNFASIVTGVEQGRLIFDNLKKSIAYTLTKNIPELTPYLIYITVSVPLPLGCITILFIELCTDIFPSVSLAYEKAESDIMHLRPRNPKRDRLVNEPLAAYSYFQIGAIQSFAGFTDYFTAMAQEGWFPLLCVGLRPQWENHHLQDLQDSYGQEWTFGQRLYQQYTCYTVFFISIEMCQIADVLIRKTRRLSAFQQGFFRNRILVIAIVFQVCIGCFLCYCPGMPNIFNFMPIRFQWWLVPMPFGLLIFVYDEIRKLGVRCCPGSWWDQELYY
Sequence (P18434 whole entry partner): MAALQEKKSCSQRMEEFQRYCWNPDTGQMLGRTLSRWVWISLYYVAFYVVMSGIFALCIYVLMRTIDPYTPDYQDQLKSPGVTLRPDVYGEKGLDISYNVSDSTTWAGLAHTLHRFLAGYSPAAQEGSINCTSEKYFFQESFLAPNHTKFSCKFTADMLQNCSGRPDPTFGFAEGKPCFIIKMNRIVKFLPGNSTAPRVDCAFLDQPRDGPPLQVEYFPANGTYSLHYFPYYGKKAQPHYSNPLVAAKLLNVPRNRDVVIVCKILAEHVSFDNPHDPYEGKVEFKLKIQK
Test: Proton potassium-adenosine triphosphatase (H+,K+-ATPase) inhibitory activity test
Conditions: swine gastric microsomal fraction, pH 6.5, 37° C.
Experimental: Proton Potassium-Adenosine Triphosphatase (H^+,K^+-ATPase) Inhibitory Activity Test According to the method [Biochim. Biophys. Acta, 728, 31 (1983)] of Wallmark et al., a gastric mucous membrane microsomal fraction was prepared from the stomach of swine. First, the stomach was removed, washed with tap water, immersed in 3 mol/L brine, and the surface of the mucous membrane was wiped with a paper towel. […]
One number for each entry, as −log10 of the molar value.

compound	observed-result
CNCc1cc(-c2cccnc2C#N)n(S(=O)(=O)c2ccccc2C#N)c1.Cl [Example 101, hydrochloride]	6.64
CNCc1cc(-c2cccnc2Cl)n(S(=O)(=O)c2ccccc2)c1.Cl [Example 15, hydrochloride]	7.37
CNCc1cn(S(=O)(=O)c2ccccc2)c(-c2cccnc2F)c1C.Cl [Example 26, hydrochloride]	6.96

Here is another compound to look at.
Supply reported pIC50 belonging to this compound: CNCc1cn(S(=O)(=O)c2ccccc2)c(-c2cccnc2F)c1F [Example 30]
7.59

###

Molecular target: proton, potassium-adenosine triphosphatase (H+,K+-ATPase) (Sus scrofa, UniProt P19156)
Construct: a gastric mucous membrane microsomal fraction was prepared from the stomach of swine
Assay: Proton potassium-adenosine triphosphatase (H+,K+-ATPase) inhibitory activity test
Settings: swine gastric microsomal fraction, pH 6.5, 37° C.
Description: Proton Potassium-Adenosine Triphosphatase (H^+,K^+-ATPase) Inhibitory Activity Test According to the method [Biochim. Biophys. Acta, 728, 31 (1983)] of Wallmark et al., a gastric mucous membrane microsomal fraction was prepared from the stomach of swine. First, the stomach was removed, washed with tap water, immersed in 3 mol/L brine, and the surface of the mucous membrane was wiped with a paper towel. […]
quantity: IC50 (nM)
Give bare numbers, in nM.

# example entries with known answers
molecule	target-under-test	measurement-unit	IC50
CNCc1cn(S(=O)(=O)c2cnn(C(F)F)c2)c(-c2cccnc2F)c1F.Cl [Example 81, hydrochloride]	proton, potassium-adenosine triphosphatase (H+,K+-ATPase) (Sus scrofa, UniProt P19156)	nM	300
CNCc1cn(S(=O)(=O)c2nccs2)c(-c2cccnc2F)c1F.Cl [Example 83, hydrochloride]	proton, potassium-adenosine triphosphatase (H+,K+-ATPase) (Sus scrofa, UniProt P19156)	nM	180

Give IC50 for each listed item.
1. CNCc1cn(S(=O)(=O)c2ccoc2C)c(-c2cccnc2F)c1F.Cl [Example 72, hydrochloride]
2. CNCc1cn(S(=O)(=O)c2ccccn2)c(-c2cccnc2F)c1F.Cl [Example 85, hydrochloride]
3. CNCc1cc(-c2cccnc2C#N)n(S(=O)(=O)c2ccccc2)c1.Cl [Example 16, hydrochloride]
4. CNCc1cc(-c2cccnc2C#N)n(S(=O)(=O)c2ccccc2Cl)c1.Cl [Example 99, hydrochloride]
5. CNCc1cn(S(=O)(=O)c2ccc(CO)o2)c(-c2cccnc2F)c1F
6. CNCc1cn(S(=O)(=O)c2cccc(CO)c2)c(-c2cccnc2F)c1F

[93, 98, 120, 270, 190, 130]
